systemTested: T1, human C1s proenzyme (CompTech A103) (human, UniProt P09871 16-688)
T1 construct: also called proenzyme human C1s (native C1s)
T1 sequence (looked up): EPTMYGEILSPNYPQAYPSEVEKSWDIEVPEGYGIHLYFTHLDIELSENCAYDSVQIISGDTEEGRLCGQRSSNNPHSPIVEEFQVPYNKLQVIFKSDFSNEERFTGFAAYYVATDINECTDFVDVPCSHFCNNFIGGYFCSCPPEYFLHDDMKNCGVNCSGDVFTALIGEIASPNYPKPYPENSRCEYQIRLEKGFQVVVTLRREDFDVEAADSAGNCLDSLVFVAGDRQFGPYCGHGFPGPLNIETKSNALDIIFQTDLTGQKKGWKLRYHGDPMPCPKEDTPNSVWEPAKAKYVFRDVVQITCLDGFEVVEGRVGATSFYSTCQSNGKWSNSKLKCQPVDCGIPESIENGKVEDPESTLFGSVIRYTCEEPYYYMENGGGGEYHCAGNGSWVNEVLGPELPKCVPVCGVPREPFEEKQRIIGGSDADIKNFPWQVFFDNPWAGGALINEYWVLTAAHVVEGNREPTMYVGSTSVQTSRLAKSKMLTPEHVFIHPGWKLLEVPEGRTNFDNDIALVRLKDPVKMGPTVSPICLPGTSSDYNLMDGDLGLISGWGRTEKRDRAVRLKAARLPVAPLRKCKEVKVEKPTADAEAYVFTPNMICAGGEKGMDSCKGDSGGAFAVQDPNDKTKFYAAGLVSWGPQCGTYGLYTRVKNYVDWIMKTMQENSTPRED
assayDetails: ELISA, C1s coated on plate
assayMetric: EC50 (ng/mL)
Expressed in ng/mL, but write only the number.

binder	EC50 [ng/mL]
Anti-C1s antibody hz2-8 (H1L2 G80A/T82A) (antibody, V domains shown, Humanized variant with G80A and T82A in HC CDR2 (already in the entry), human IgG1 / kappa) VH: QVQLVQSGAEVKKPGASVKVSCKASGFNIKEYYMHWVRQAPEQGLEWMGWIDPENADAIYAQKFQGRVTITADTSTNTAYMELSSLRSEDTAVYYCARSRLFFAYWGQGTLVTVSS VL: DIQMTQSPKSLSASVGDRVTITCRASQDVRTALDWYQQKPGQSPKLLIYSASYRYSGVPSRFSGSGSGTDFTLTISSLQPEDFATYYCQQQYTTPYTFGQGTKLEIKR	8
Anti-C1s antibody hz2-7(H1L2) (antibody, V domains shown, Humanized, human IgG1 / kappa; also called hz2-7(1L2)) VH: EVQLLESGGGLVQPGGSLRLSCAASGFTFSNYFMNWVRQAPGKGLEWVSEIRLKFTNYATHYADSVKGRFTISRDDSKSTLYLQMNSLRAEDTAVYYCTRDYGSRNGYFDYWGQGTLVTVSS VL: DIVMTQTPLSLPVTPGEPASISCRSSKSLLHSNGNTFLYWFLQKPGQSPQLLIYRMSNLASGVPDRFSGSGSGTDFTLKISRVEAEDVGVYYCMQHLEYPYTFGGGTKLEIKR	12
Anti-C1s antibody 2-7 (antibody, human IgG1, kappa, V domains shown, the HC/LC entries may hold it too; also called clone 2-7) VH: EVKLEESGGGLVPPGGSMKLSCVASGFTFSNYFMNWVRQSPEKGLEWVAEIRLKFTNYATHYAESVEGRFTISRDDSKSSVYLQMNNLRAEDTGIYYCTRDYGSRNGYFDYWGQGTTLTVSS VL: DIVMTQAAPSVPVTPGESVSISCRSSKSLLHSNGNTFLYWFLQRPGQSPQLLIYRMSNLASGVPDRFSGSGSGTAFTLRVSRVEAEDVGIYYCMQHLEYPYTFGGGTKLEIKT	9

// recorded EC50 for Anti-C1s antibody 2-8 (antibody, V domains shown, the HC/LC entries may hold it too; also called clone 2-8) VH: EVQLQQSGAELVRPGALVKLSCKASGFNIKEYYMHWVKQRPEQGLEWIGWIDPENGDTIYDPKFQGKASITADTSSNTAYLQLSSLTSEDTAVYYCARSRLFFAYWGQGTLVTVSA VL: DIVMTQSHKFMSTSVGDRVSFTCKASQDVRTAVDWYQQKPGQSPKLLIYSASYRYTGVPDRFTGTGSGTDFTFTISSVQAEDLAVYFCQQQYTTPYTFGGGTKLEIKT : 10
